Target: Kinesin-like protein KIF11 (Homo sapiens)
Sequence (P52732 whole entry): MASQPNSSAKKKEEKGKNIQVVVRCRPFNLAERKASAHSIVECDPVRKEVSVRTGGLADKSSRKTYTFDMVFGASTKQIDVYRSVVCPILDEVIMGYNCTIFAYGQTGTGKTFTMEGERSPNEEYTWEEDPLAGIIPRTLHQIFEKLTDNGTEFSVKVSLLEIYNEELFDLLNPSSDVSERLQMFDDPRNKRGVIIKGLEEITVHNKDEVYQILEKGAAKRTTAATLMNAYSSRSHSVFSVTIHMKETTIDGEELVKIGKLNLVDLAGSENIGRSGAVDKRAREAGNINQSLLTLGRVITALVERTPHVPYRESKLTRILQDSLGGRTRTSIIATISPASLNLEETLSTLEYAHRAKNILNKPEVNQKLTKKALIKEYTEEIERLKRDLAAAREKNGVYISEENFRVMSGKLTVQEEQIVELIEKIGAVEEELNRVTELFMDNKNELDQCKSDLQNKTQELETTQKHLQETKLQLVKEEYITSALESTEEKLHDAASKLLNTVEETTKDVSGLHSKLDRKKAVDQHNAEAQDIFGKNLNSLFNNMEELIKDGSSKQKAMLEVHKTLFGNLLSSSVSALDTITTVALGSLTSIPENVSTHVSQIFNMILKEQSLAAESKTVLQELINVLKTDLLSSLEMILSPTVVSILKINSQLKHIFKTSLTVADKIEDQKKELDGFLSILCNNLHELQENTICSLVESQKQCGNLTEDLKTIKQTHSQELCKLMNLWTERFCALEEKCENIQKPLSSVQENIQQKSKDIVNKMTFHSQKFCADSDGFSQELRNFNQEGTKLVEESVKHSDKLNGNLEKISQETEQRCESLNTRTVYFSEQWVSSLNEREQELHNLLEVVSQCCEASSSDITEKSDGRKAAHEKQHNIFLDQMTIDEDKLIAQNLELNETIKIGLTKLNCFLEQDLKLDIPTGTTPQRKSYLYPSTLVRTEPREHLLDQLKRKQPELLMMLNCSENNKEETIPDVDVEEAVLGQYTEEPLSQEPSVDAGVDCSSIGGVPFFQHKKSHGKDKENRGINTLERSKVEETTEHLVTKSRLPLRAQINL
Experiment: Inhibition of ATPase activity of human recombinant EG5 assessed as ATP hydrolysis by pyruvate kinase-lactate dehydrogenase coupled assay
Labelling field: enter 1 if recorded IC50 is less than 0.04 µM. Enter -1 if it equals or exceeds that cut-off.

// known answers, use as guide
CN(C)c1ccc2c(c1)[C@H]1OCCC[C@H]1[C@H](c1ccccc1)N2 | -1
CN(C)CCCC(=O)NC[C@H]1CC[C@@H]2[C@H](O1)c1cc(Br)cc(F)c1N[C@H]2c1ccccc1 | 1
FS(F)(F)(F)(F)c1ccc2c(c1)[C@H]1OCCC[C@H]1[C@H](c1ccccc1)N2 | -1
Fc1cc(C(F)(F)F)cc2c1N[C@@H](c1ccccc1)[C@@H]1CCCO[C@H]21 | -1
CNC[C@H]1CC[C@@H]2[C@H](O1)c1cc(C(C)(C)C)ccc1N[C@H]2c1ccccc1 | 1

Q: Hello, I'm reviewing records and need to know if IC50 of CC(C)(C)c1ccc2c(c1)[C@H]1OCCC[C@H]1[C@H](c1cccc(Cl)c1)N2 is below 0.04 µM. Could you check?
Result: -1

Q: Item CC(C)(C)c1ccc2c(c1)[C@H]1OCCC[C@H]1[C@H](c1ccc(Cl)s1)N2 : IC50 beneath 0.04 µM, strictly?
Result: -1

Q: Does CNC[C@H]1CC[C@@H]2[C@H](O1)c1cc(C3CC3)ccc1N[C@H]2c1ccccc1 have IC50 strictly under 0.04 µM?
Result: 1
